- Tested on: M14
- assay comment: NCI tumour cell line growth inhibition, 48 h
Calls of active or inactive are those of the source. No stated cut-off is given here; in the data, active = GI50 up to about 1.1 µM and inactive = higher. Non-standard residues stand in square brackets, D forms with d. Residues, ends and D or L forms follow the SMILES beside them. ξ: configuration not given here. *: point of attachment. NMeY = CN[C@@H](Cc1ccc(O)cc1)C(=O)O; Cbz = O=C(OCc1ccccc1)*; ξA = CC(N)C(=O)O
Reported GI50 is given for each of the following molecules.

molecule | GI50
Cn1cnc2c(OCC3CCCCC3)nc(N)nc21 | > 100 µM (inactive)
O=C(O)c1c(Cl)c(Cl)c(Cl)c(Cl)c1C(=O)Nc1ccc2cn[nH]c2c1 | > 100 µM (inactive)
COc1ccc(C[C@@H](C(=O)NCC(N)=O)N(C)C(=O)[C@@H]2CCCN2C(=O)[C@H](CC(C)C)NC(=O)C(C)NC(=O)OCc2ccccc2)cc1 (some centres undefined) (Cbz-[ξA]LP[NMeY](Me)G-NH2) | > 100 µM (inactive)
O=c1ccn(C/C=C/c2ccccc2)c(=S)n1C/C=C/c1ccccc1 | 73.6 µM (inactive)
COc1ccc(C2C(Cl)C(=O)N2n2cnc3ccccc3c2=O)cc1 (centres undefined) | 28.4 µM (inactive)
Nc1nc(-c2ccccc2/N=N/N2CCCC2)nc2ccccc12 | 3.08 µM (inactive)
O=C(Cc1nc2ccc(C(=O)c3ccccc3)cc2nc1O)C(=O)Nc1ccccc1[N+](=O)[O-] | 92 µM (inactive)
O=C(NC(=O)c1cc2cc(Br)cc(Br)c2oc1=O)Oc1ccccc1 | > 100 µM (inactive)

Shifting focus to the molecule that follows.
Return the recorded GI50 value; entry: CN(C(=O)C12C3C4C1C1C2C3C41C(=O)O)C(C)(C)C (centres undefined)
> 100 µM (inactive)

----------
# GI50 listing for each entry below
- Tested on: SNB-19
- assay comment: NCI tumour cell line growth inhibition, 48 h
Calls of active or inactive are those of the source. No stated cut-off is given here; in the data, active = GI50 up to about 1.1 µM and inactive = higher.

compound | GI50
CN(C)CCNC(=O)c1cccc2[nH]c(-c3ccccn3)nc12 | 42.2 µM (inactive)
ClCCNCCNCCCl.ClCCNCCNCCCl.[O-][Cl+3]([O-])([O-])O | > 100 µM (inactive)
C=C(Cl)/C(=C/Cl)CCC(Br)C(C)(C)Cl.C=C(Cl)/C(=C\Cl)CCC(Br)C(C)(C)Cl (stereo not given) | > 10 µM (inactive)
Cc1ccsc1/C=N/Nc1cc(C)c2cccc(C)c2n1 | > 100 µM (inactive)

Next compound, GI50 to be filled in.
Provide only the value of recorded GI50 for O=C(OCC(OC(=O)c1ccccc1)C1CC(C2(O)CCCCC2)C(=O)O1)c1ccccc1 (stereo not given)
> 25 µM (inactive)

----------
- Tested on: NCI-H522
- assay comment: NCI tumour cell line growth inhibition, 48 h
Calls of active or inactive are those of the source. Cut-off read from the data, not from the text of the source: active = GI50 up to about 1.1 µM and inactive = higher.
Collected GI50 values appear next to each entry.

Some compounds with recorded GI50:
compound | GI50
CS(=O)(=O)N(N(CCCl)S(=O)(=O)c1ccccc1)S(C)(=O)=O | > 100 µM (inactive)
CC(=O)Oc1cc(OC(C)=O)c2c(c1C)CC[C@@H]1[C@@H]2CC[C@]2(C)[C@@H](OC(C)=O)CC[C@@H]12 | 16.7 µM (inactive)
O=C1OCc2nc3c(c(-c4ccccc4C(F)(F)F)c21)C(=O)OC3 | > 100 µM (inactive)
CN(C)CCNC(=O)c1ccc(NCCCN(C)CCCNc2ccc(C(=O)NCCN(C)C)c3nc4ccc([N+](=O)[O-])cc4c(O)c23)c2c(O)c3cc([N+](=O)[O-])ccc3nc12 | < 0.01 µM (active)
N#Cc1cccc(C2SCc3nc4ccccc4n32)c1 (centres undefined) | 69.3 µM (inactive)

For the compound "CC(=O)c1c(C)[n+]([O-])c2cc(C)c(C)cc2[n+]1[O-]" , give its reported GI50.
> 100 µM (inactive)

Give GI50 for the following compound: "CC(=O)OC[C@H]1On2nnnc2[C@H](OC(C)=O)[C@@H](OC(C)=O)[C@@H]1OC(C)=O"
> 100 µM (inactive)

Note down GI50 recorded for "O=C1c2c(Br)sc(Br)c2[C@H]2OC(=S)N[C@@H]12"
1.69 µM (inactive)

Quickly give me recorded GI50 for "OCCSCc1ccccc1"
> 100 µM (inactive)

----------
- Test system: HT-29
- assay comment: NCI tumour cell line growth inhibition, 48 h
The source made the active and inactive calls. Cut-off read from the data, not from the text of the source: active = GI50 up to about 1.1 µM and inactive = higher.
# GI50 per entry

molecule | assayed system | GI50
CC(=O)OC[C@H]1On2nnnc2[C@H](OC(C)=O)[C@@H](OC(C)=O)[C@@H]1OC(C)=O | HT-29 | > 100 µM (inactive)
O=c1ccc2c(Cl)sc(Cl)c2[nH]1 | HT-29 | > 100 µM (inactive)

For HT-29, give GI50 of the listed molecule: "COc1cc(-c2oc3ccccc3c(=O)c2O)cc(OC)c1OC"
> 74.8 µM (inactive)

// fetch GI50 for NC(=O)NCCSC1CCCCC1O (configuration not stated) ; system: HT-29
> 100 µM (inactive)

Param request: GI50 | system HT-29 | item "O=C(NCc1ccccc1)c1cc2ccc(O)c(O)c2cn1"
44.1 µM (inactive)

Enter GI50 (test system HT-29) for "Cc1ccc([N+](=O)[O-])c2c(NCCCN(C)C)ccnc12"
31 µM (inactive)

Under HT-29, report GI50 for COc1ccc(C2OC(N)=C(C#N)C3=C2CCCC3C)cc1OC (configuration not stated)
> 100 µM (inactive)

----------
Listed here: items and their measured GI50.
- Test system: RPMI-8226
- assay comment: NCI tumour cell line growth inhibition, 48 h
Calls of active or inactive are those of the source. No stated cut-off is given here; in the data, active = GI50 up to about 1.1 µM and inactive = higher.

compound | GI50
O=C1C2CN(Cc3ccccc3)CC1CN(CC1CC1)C2 | > 100 µM (inactive)
CC(C)N(C(=O)C12C3C4C5(C#N)C3C1(C#N)C5C42I)C(C)C (configuration not stated) | > 46.1 µM (inactive)
CN1CC(c2ccccc2)C(O)(C2(c3ccccc3)CN(C)CC(c3ccccc3)C2=O)C(c2ccccc2)C1 (configuration not stated) | > 100 µM (inactive)
CC(=O)NC1C(O)CC(OCCCSCCN)(C(=O)O)OC1C(O)C(O)CO (configuration not stated) | > 100 µM (inactive)
CC(=O)c1c(C)[n+]([O-])c2cc(C)c(C)cc2[n+]1[O-] | > 100 µM (inactive)
Cc1nc(N)nc(N)c1-c1ccc(Cl)c(Cl)c1 [METOPRINE] | 6.28 µM (inactive)

For the compound "Cc1cc(=O)n2nc(CSc3nnc(N)s3)sc2n1" , report GI50.
> 100 µM (inactive)

Annotate the compound "Cc1nc2cccc(F)c2c(=O)n1-c1nnc(C(F)(F)F)s1" with its measured GI50.
> 10 µM (inactive)

For the compound "O=c1cc(CBr)c2ccc(O)cc2o1" , give its reported GI50.
38.5 µM (inactive)

----------
- Test system: Hs-578T
- assay comment: NCI tumour cell line growth inhibition, 48 h
Activity calls are given as the source filed them. No stated cut-off is given here; in the data, active = GI50 up to about 1.1 µM and inactive = higher. Peptide text beside a SMILES is read from it. * marks the point of attachment. X27 = Clc1c(Cl)c(Cl)c(O*)c(Cl)c1Cl; Boc = CC(C)(C)OC(=O)*; OBn = c1ccc(CO*)cc1; Bn = c1ccc(C*)cc1
Outcome (select one): active, inactive

// known answers, use as guide
compound | assigned label
OCCCCCNc1cc(O)nc(O)n1 | inactive
COc1cc([C@@H]2c3cc4c(cc3[C@@H](OC3OC5COC(C)OC5C(O)C3O)[C@H]3COC(=O)[C@H]23)OCO4)cc(OC)c1O (stereo partly specified) | active
CC1OC(OC2CC(O)(C(=O)CO)Cc3c(O)c4c(c(O)c32)C(=O)c2ccccc2C4=O)CC(N)C1O (stereo unspecified) | active

Returns: the outcome recorded for "CC(=O)Nc1ccc2nc(-c3cccc(F)c3)cc(O)c2c1" in this assay.
inactive

Please state the recorded outcome for this compound: "O=C(N/N=C\c1cccs1)c1ccncc1"
inactive

Called result for CC(=O)OC12c3ccccc3C(c3ccccc31)C1C(=O)N(Nc3ccccc3)C(=O)C12 (stereo unspecified)
inactive

// param item: "O=c1ssc2c1Nc1c(ssc1=O)S2" ; yields the recorded call
inactive

Dear colleague, could you share the recorded outcome for "O=c1[nH]c(=O)n(COCc2ccccc2)c2ccsc12" when you have a moment?
inactive

What outcome does the record of this test show for CC(C)CC(NC(=O)C(CCC(=O)OCc1ccccc1)NC(=O)OC(C)(C)C)C(=O)NC(COCc1ccccc1)C(=O)NC(Cc1ccccc1)C(=O)Oc1c(Cl)c(Cl)c(Cl)c(Cl)c1Cl (stereo unspecified) (Boc-E(OBn)LS(Bn)F-X27; configuration not given here) ?
inactive

Fill in: this test's call for "O=c1onc2c3ccccc3ncn12" is ___
inactive

Hi, sorry to bother you, what did the test record for "Cc1cc2c(cc1-c1cc3c(cc1C)C(C(C)C)=C(O)C(=O)/C3=C\Nc1ccccn1)/C(=C/Nc1ccccn1)C(=O)C(O)=C2C(C)C" ?
inactive

How did this test come out for "CCCCCCCCCCCCCCCCNC(=O)/C(O)=C/C(=O)c1ccc(C)cc1" ?
inactive

Field: outcome | Entry: C=C(CCC=C(C)C)C1CC=C(C)CC1 (stereo unspecified)
inactive
